Catalogue of IC50 values
system: AI-2 QS in WHQ01 (S. typhimurium ATCC 202165 ΔTolC pWHQ01); test: Cell-based AI-2-mediated QS interference assay in WHQ01; conditions: Salmonella enterica, read-out: WHQ01 (IC50)
property-name: IC50

1) CN1CCN(C(=O)c2ccc(NCc3ccc(F)cc3)c(S(=O)(=O)Nc3cccc(C(F)(F)F)c3)c2)CC1	7.97 µM
2) Cc1c(CC(=O)O)c(=O)oc2c(C)c(OCc3ccc(F)cc3F)ccc12	21.1 µM
3) CCOc1cc(C2NC(C(=O)O)CS2)ccc1OCc1c(F)cccc1Cl (stereo not shown)	23.3 µM
4) Cc1ccc(NC(=O)C[C@H](C)n2ccnc2)cc1Cl	30.6 µM
5) CCOc1cc(/C=N/NC(=N)N)ccc1OCc1ccc(Cl)cc1	42.9 µM
6) COc1cc(/C=C2/SC(=S)N(c3cccc(C(F)(F)F)c3)C2=O)ccc1OCC(=O)O	24.7 µM
7) NCCc1cn(Cc2ccc(C(F)(F)F)cc2)nn1	24.9 µM
